meta.source: ChEMBL document CHEMBL4346653

Molecular target: Adenosine receptor A2b (Homo sapiens, UniProt P29275)
Sequence (P29275 whole entry): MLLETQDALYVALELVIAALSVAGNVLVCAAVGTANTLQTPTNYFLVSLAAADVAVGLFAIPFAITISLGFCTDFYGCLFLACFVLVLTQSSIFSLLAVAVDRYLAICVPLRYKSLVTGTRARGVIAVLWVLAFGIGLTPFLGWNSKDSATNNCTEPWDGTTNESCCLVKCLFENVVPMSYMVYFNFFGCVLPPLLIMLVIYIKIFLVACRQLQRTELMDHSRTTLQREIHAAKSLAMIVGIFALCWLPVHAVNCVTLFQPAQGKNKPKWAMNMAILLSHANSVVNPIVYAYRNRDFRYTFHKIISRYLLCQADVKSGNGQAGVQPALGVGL
Test: Displacement of [3H]PSB-603 from recombinant human A2B adenosine receptor expressed in CHO cell membranes measured after 75 mins in presence of adenosine deaminase by liquid scintillation counting method
testReadout: Ki (nM)

Consider the following illustrative entries.
stdin: Give the measured Ki of `CCCn1c(=O)[nH]c2nc(-c3ccc(S(=O)(=O)N(C)CCc4ccccc4)cc3)[nH]c2c1=O` .
stdout: 1.69

stdin: // next record `CCCn1c(=O)[nH]c2nc(-c3ccc(S(=O)(=O)N4CCN(c5ccc(Cl)c(O)c5)CC4)cc3)[nH]c2c1=O`
stdout: 0.421

stdin: // next record `CCCn1c(=O)[nH]c2nc(-c3ccc(S(=O)(=O)N4CCN(Cc5ccc(F)c(OC)c5)CC4)cc3)[nH]c2c1=O`
stdout: 0.629

(A) CCCn1c(=O)[nH]c2nc(-c3ccc(S(=O)(=O)N4CCN(c5ccc(C)cc5)CC4)cc3)[nH]c2c1=O
(B) CCCn1c(=O)c2[nH]c(-c3ccc(S(=O)(=O)N4CCN(c5ccc(Cl)cc5)CC4)cc3)nc2n(C)c1=O
(C) CCCn1c(=O)[nH]c2nc(-c3ccc(S(=O)(=O)N4CCN(c5ccc(OC)c(Cl)c5)CC4)cc3)[nH]c2c1=O
(D) CCCn1c(=O)[nH]c2nc(-c3ccc(S(=O)(=O)N4CCN(C)CC4)cc3)[nH]c2c1=O
stdin: Number of compounds to sort: 4. Sort criterion: Ki, ascending. Please list each label once, in the requested order.
stdout: C, A, B, D
(C: 0.352 nM, A: 0.706 nM, B: 1.91 nM, D: 48.2 nM)
